Field: PBM binding z-score. Provide a value for each of the sequences that follow.
system: RARa homodimer (NR concentration 270 nM); experiment: PBM binding z-score (relative to random genomic background probes); higher = stronger binding; sequences stand for … in GC…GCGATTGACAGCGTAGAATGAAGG
Number only, no unit.

For reference, reported PBM binding z-score for `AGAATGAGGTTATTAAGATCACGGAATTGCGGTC` stands at 0.114

Reported PBM binding z-score of `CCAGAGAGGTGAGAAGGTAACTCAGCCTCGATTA` : -0.0942

Documented PBM binding z-score of `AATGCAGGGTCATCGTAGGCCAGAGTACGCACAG` : 0.252

Form: sequence = `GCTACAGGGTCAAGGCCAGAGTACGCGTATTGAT` ; PBM binding z-score = 0.58

GET /value?item= `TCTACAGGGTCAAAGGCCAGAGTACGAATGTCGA` &field=PBM binding z-score returns 0.385

Query `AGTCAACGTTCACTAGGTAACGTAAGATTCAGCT` yields PBM binding z-score of -0.305

Reported PBM binding z-score ( `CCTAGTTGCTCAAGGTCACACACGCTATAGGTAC` ) = 2.45

PBM binding z-score reported for this sequence `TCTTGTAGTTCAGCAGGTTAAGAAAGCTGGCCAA` : 0.277

PBM binding z-score reported for this sequence `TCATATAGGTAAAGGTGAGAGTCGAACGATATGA` : 0.387

Recorded PBM binding z-score (sequence `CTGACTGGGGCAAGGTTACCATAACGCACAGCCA` ): 0.104

The measured PBM binding z-score associated with `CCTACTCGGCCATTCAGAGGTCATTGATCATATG` reads 1.67

Memo: `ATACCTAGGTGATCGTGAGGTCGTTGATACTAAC` , reported PBM binding z-score: 0.311
